# experimentSummary: solvent given as SMILES
# conditionParameters: in ClC(Cl)Cl
fluorescence lifetime less than 3 ns is true; fluorescence lifetime greater than or equal to 3 ns is false.

# example entries with known answers
[[record]]
compound = "COc1ccc2c(C=C(C#N)C#N)cc3ccc4cc(C=C(C#N)C#N)c5ccc(OC)cc5c4c3c2c1"
labelvalue = "true"

[[record]]
compound = "CCCCCCCCCCCCOc1cc2c3c(ccc4c5c(OC6CCC(C(C)(C)C)CC6)cc6c7c(ccc(c1c34)c75)C(=O)N(C1CCCCC1)C6=O)C(=O)N(C1CCCCC1)C2=O (stereo not drawn)"
labelvalue = "false"

[[record]]
compound = "Cc1ccc(C2=C3C=CC(c4ccccc4)=[N+]3[B-](F)(F)n3c2ccc3-c2ccccc2)cc1"
labelvalue = "true"

[[record]]
compound = "COc1ccc2c(c1)c(C#N)cc1c(OC)c(OC)c3cc(C#N)c4cc(OC)ccc4c3c12"
labelvalue = "false"

[[record]]
compound = "O=[N+]([O-])c1ccc(F)cc1C1CC(c2cccc3ccccc23)=NN1c1ccccc1 (stereo not drawn)"
labelvalue = "false"

[[record]]
compound = "Cc1ccc(C(=O)/N=c2\\oc3cccc4c5c(-c6ccccc6)oc6cccc(c(c2-c2ccccc2)c34)c65)cc1"
labelvalue = "true"


Below 3 ns on fluorescence lifetime? Entry "CCCCCCCCCCCCCCCCN(CCCCCCCCCCCCCCCC)c1ccc(/C=C/c2cc[n+](Cc3cc(C[n+]4ccc(/C=C/c5ccc(N(CCCCCCCCCCCCCCCC)CCCCCCCCCCCCCCCC)cc5)cc4)cc(C[n+]4ccc(/C=C/c5ccc(N(CCCCCCCCCCCCCCCC)CCCCCCCCCCCCCCCC)cc5)cc4)c3)cc2)cc1" true

Just wondering, is fluorescence lifetime of "CCCCCCN1C(=O)c2cccc3cc(/N=C\c4cn(C)c5ccccc45)cc(c23)C1=O" below 3 ns? false

Record "Cc1ccc(C2=C3C=CC(C#Cc4ccccc4)=[N+]3[B-](F)(F)n3c(Cl)ccc32)cc1" : is its fluorescence lifetime strictly below 3 ns? false

Input "CN(C)c1ccc(-c2cc(-c3ccc(C#N)cc3)nc(-c3ccccc3)n2)cc1" ; condition: fluorescence lifetime strictly below 3 ns. Does it hold? false
